Recorded values, source ChEMBL document CHEMBL1140675.

Target: Sodium channel protein type 9 subunit alpha (Homo sapiens, UniProt Q15858)
Sequence (Q15858 whole entry): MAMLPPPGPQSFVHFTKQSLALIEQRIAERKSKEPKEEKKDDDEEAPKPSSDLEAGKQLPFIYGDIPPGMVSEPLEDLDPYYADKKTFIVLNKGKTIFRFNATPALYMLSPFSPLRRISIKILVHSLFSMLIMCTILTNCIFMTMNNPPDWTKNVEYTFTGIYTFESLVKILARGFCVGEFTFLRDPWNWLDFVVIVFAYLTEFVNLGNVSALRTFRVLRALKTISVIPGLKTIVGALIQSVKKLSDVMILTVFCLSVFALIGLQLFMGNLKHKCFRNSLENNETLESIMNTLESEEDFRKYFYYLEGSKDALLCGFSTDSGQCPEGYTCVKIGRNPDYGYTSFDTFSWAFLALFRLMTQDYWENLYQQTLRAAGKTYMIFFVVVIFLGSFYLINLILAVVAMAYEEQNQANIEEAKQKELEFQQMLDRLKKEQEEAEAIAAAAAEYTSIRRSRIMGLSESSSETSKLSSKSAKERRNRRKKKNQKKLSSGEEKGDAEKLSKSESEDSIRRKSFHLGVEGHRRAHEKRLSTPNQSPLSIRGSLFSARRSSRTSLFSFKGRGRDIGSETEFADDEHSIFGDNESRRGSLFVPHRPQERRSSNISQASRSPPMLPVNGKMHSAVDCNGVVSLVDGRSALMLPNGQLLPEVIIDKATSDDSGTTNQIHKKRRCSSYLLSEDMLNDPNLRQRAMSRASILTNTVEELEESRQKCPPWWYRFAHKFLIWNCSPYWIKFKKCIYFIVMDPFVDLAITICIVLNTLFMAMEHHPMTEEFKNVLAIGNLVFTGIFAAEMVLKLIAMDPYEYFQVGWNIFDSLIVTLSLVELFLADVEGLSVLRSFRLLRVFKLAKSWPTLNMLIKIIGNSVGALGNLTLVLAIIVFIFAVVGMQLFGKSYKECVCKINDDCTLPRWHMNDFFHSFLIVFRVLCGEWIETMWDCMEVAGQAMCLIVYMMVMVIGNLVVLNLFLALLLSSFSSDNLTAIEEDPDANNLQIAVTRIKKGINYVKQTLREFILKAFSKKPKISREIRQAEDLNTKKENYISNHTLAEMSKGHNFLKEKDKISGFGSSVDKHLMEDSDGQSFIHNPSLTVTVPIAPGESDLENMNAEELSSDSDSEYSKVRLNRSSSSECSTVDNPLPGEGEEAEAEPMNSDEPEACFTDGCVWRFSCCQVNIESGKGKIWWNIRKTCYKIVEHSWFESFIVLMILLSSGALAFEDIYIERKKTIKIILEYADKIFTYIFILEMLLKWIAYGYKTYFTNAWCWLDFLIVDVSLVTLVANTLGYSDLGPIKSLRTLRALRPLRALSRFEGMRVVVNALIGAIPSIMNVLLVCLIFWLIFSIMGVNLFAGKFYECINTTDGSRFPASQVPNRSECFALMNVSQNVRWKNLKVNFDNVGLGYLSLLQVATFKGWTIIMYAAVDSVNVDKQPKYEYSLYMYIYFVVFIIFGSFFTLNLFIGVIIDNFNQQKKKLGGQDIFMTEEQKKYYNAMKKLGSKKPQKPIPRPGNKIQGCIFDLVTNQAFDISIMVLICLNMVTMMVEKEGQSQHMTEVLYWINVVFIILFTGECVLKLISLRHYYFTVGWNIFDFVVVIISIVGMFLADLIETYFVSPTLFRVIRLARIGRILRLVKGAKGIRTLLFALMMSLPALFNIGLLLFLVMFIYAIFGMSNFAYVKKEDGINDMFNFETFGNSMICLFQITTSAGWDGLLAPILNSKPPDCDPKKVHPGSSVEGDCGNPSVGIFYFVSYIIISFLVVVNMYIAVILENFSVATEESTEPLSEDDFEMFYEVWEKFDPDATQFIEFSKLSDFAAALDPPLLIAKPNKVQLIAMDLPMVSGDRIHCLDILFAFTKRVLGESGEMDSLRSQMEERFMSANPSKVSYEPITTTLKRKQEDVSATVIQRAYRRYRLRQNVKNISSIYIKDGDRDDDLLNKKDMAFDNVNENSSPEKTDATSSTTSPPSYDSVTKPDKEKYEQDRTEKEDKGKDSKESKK
Experiment: Binding affinity at human inactive state Nav1.7 by whole cell electrophysiology
Readout Name: Ki (nM)
Entry rule: numbers only, all in nM.

Query string: Can you look up the measured Ki of `CC(C)N1C(=O)[C@H](NC(=O)[C@@H](Cc2ccccc2OC(F)(F)F)NC(=O)OC(C)(C)C)CCc2ccccc21` for me?
Result string: 40

====

Experiment: Plasma clearance in rat at 1.0 mg/kg, iv or 3.0 mg/kg, po
Assay type: ADME, organism-based
# clearance annotations

Take a look at these entries with their results.
>>> reported_value("CC(C)N1C(=O)[C@@H](NC(=O)[C@@H](Cc2ccccc2OC(F)(F)F)NC(=O)OC(C)(C)C)CCc2ccccc21")
"55 mL/min/kg"
>>> reported_value("CC(C)N1C(=O)[C@H](NC(=O)[C@@H](Cc2c(F)cccc2C(F)(F)F)NC(=O)OC(C)(C)C)CCc2ccccc21")
"32 mL/min/kg"
>>> reported_value("CC(C)N1C(=O)[C@H](NC(=O)[C@@H](Cc2ccccc2OC(F)(F)F)NC(=O)OC(C)(C)C)CCc2ccccc21")
"24 mL/min/kg"

Query string: Can you look up the measured clearance of `CC(C)N1C(=O)[C@H](NC(=O)[C@@H](Cc2ccccc2F)NC(=O)OC(C)(C)C)CCc2ccccc21` for me?
Result string: 41 mL/min/kg

Query string: Can you look up the measured clearance of `CC(C)N1C(=O)[C@H](NC(=O)[C@@H](Cc2ccccc2C(F)(F)F)NC(=O)OC(C)(C)C)CCc2ccccc21` for me?
Result string: 50 mL/min/kg

====

# Cmax annotations
Experiment: Cmax in rat at 1.0 mg/kg, iv or 3.0 mg/kg, po
Format: ADME, organism-based
Conditions: in vivo
Entry rule: numbers only, all in nM.

Take a look at these entries with their results.
>>> reported_value("CC(C)N1C(=O)[C@H](NC(=O)[C@@H](Cc2ccccc2F)NC(=O)OC(C)(C)C)CCc2ccccc21")
100
>>> reported_value("CC(C)N1C(=O)[C@@H](NC(=O)[C@@H](Cc2ccccc2OC(F)(F)F)NC(=O)OC(C)(C)C)CCc2ccccc21")
140
>>> reported_value("CC(C)N1C(=O)[C@H](NC(=O)[C@@H](Cc2ccccc2C(F)(F)F)NC(=O)OC(C)(C)C)CCc2ccccc21")
300
>>> reported_value("CC(C)N1C(=O)[C@H](NC(=O)[C@@H](Cc2ccccc2OC(F)(F)F)NC(=O)OC(C)(C)C)CCc2ccccc21")
300

Shift focus to the following entry.
Query string: Can you look up the measured Cmax of `CC(C)N1C(=O)[C@H](NC(=O)[C@@H](Cc2c(F)cccc2C(F)(F)F)NC(=O)OC(C)(C)C)CCc2ccccc21` for me?
Result string: 330

====

Assay: Half life in rat at 1.0 mg/kg, iv or 3.0 mg/kg, po
Type: ADME, organism-based
Details: in vivo
# half-life annotations
Entry rule: numbers only, all in h.

Take a look at these entries with their results.
>>> reported_value("CC(C)N1C(=O)[C@H](NC(=O)[C@@H](Cc2ccccc2F)NC(=O)OC(C)(C)C)CCc2ccccc21")
1.5
>>> reported_value("CC(C)N1C(=O)[C@@H](NC(=O)[C@@H](Cc2ccccc2OC(F)(F)F)NC(=O)OC(C)(C)C)CCc2ccccc21")
2.1

Query string: Can you look up the measured half-life of `CC(C)N1C(=O)[C@H](NC(=O)[C@@H](Cc2ccccc2OC(F)(F)F)NC(=O)OC(C)(C)C)CCc2ccccc21` for me?
Result string: 2.3

Query string: Can you look up the measured half-life of `CC(C)N1C(=O)[C@H](NC(=O)[C@@H](Cc2c(F)cccc2C(F)(F)F)NC(=O)OC(C)(C)C)CCc2ccccc21` for me?
Result string: 2.5

Query string: Can you look up the measured half-life of `CC(C)N1C(=O)[C@H](NC(=O)[C@@H](Cc2ccccc2C(F)(F)F)NC(=O)OC(C)(C)C)CCc2ccccc21` for me?
Result string: 2.1
